- Assay details: Clearance in human hepatocyte at 2 uM measured upto 120 mins by LC-MS/MS analysis
- Type: ADME, cell-based
- Experimental setup: hepatocytes
# log10 of CLhep predicted at 2 µM annotations
Readout type: log10 of CLhep predicted at 2 µM (log10 of the value in mL/min/kg)

{"Molecule": "CCOC(=O)C1=C(CN2CCN3C(=O)N(CC(C)(C)C(=O)O)C[C@@H]3C2)NC(c2nccs2)=N[C@H]1c1cccc(F)c1C [LINVENCORVIR]", "log10 of CLhep predicted at 2 µM": 0.75}
{"Molecule": "COC(=O)C1=C(CN2CCN3C(=O)N(CC(C)(C)C(=O)O)C[C@@H]3C2)NC(c2nccs2)=N[C@H]1c1ccc(F)c(F)c1C", "log10 of CLhep predicted at 2 µM": 0.38}
{"Molecule": "CCOC(=O)C1=C(CN2CCN3C(=O)N(CC(C)(C)C(=O)O)C[C@@H]3C2)NC(c2nccs2)=N[C@H]1c1cccc(F)c1Cl", "log10 of CLhep predicted at 2 µM": 0.85}
{"Molecule": "CCOC(=O)C1=C(CN2CCN3C(=O)N(CC(C)(C)C(=O)O)C[C@@H]3C2)NC(c2nccs2)=N[C@H]1c1ccc(F)cc1Cl", "log10 of CLhep predicted at 2 µM": -0.22}
{"Molecule": "COC(=O)C1=C(CN2CCN3C(=O)N(CC(C)(C)C(=O)O)C[C@@H]3C2)NC(c2nccs2)=N[C@H]1c1ccc(F)cc1Cl", "log10 of CLhep predicted at 2 µM": 0.96}

----------
- Assay details: Volume of distribution at steady state in Wistar Han rat at 2 mg/kg,iv by LC-MS/MS analysis
- Format: ADME, organism-based
- Experimental setup: in vivo, read-out: Vdss

{"Item smiles": "CCOC(=O)C1=C(CN2CCN3C(=O)N(CC(C)(C)C(=O)O)C[C@@H]3C2)NC(c2nccs2)=N[C@H]1c1cccc(F)c1C", "Result unit": "L/kg", "Vd": 1.34}

----------
- Measured target: hERG (Homo sapiens)
- Sequence (Q12809 whole entry): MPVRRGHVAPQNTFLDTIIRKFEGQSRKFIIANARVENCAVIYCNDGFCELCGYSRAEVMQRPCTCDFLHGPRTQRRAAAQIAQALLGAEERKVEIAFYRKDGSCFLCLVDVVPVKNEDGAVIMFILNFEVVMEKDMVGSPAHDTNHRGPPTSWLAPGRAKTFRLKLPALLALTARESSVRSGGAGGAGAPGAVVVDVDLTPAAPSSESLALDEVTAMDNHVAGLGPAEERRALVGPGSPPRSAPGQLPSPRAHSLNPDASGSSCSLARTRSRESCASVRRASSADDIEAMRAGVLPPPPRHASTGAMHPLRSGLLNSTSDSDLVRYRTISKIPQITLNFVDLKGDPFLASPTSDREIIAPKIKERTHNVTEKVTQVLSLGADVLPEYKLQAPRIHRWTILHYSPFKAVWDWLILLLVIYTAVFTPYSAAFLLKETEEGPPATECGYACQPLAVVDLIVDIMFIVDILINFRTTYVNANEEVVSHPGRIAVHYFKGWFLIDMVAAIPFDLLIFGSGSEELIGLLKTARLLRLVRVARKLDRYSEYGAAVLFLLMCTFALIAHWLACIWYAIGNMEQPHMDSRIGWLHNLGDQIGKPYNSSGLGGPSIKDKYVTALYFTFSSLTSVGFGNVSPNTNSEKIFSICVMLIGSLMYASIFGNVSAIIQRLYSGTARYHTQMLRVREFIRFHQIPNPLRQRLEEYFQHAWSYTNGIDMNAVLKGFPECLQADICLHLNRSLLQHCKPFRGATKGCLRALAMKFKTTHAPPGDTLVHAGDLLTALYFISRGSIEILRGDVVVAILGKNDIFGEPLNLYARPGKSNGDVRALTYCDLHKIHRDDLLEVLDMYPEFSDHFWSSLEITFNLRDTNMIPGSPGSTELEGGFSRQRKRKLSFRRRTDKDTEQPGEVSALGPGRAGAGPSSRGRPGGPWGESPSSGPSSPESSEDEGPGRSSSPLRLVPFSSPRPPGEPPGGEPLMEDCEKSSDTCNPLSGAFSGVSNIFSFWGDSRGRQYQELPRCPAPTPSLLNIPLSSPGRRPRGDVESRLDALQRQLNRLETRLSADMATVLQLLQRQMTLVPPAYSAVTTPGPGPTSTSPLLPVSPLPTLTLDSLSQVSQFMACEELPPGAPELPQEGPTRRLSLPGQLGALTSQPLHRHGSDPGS
- Assay details: Inhibition of hERG stably expressed in CHO cells by whole-cell voltage-clamp assay
- Format: toxicity, cell-based
- Experimental setup: human, CHO cells stably expressing hERG
# IC20 annotations
Readout type: IC20 (nM)

{"Item smiles": "CCOC(=O)C1=C(CN2CCN3C(=O)N(CC(C)(C)C(=O)O)C[C@@H]3C2)NC(c2nccs2)=N[C@H]1c1cccc(F)c1Cl", "Prefix operator": ">", "Measured value": 10000}
{"Item smiles": "CCOC(=O)C1=C(CN2C[C@H]3CN(C(C)(C)C)C(=O)N3C[C@@H]2C(=O)O)NC(c2nccs2)=N[C@H]1c1ccc(F)cc1Cl", "Prefix operator": "=", "Measured value": 2200}
{"Item smiles": "COC(=O)C1=C(CN2CCN3C(=O)N(CC4(C(=O)O)CC4)C[C@@H]3C2)NC(c2nccs2)=N[C@H]1c1ccc(F)cc1Cl", "Prefix operator": "=", "Measured value": 2300}
{"Item smiles": "COC(=O)C1=C(CN2CCN3C(=O)N(CC4(C(=O)O)CCC4)C[C@@H]3C2)NC(c2nccs2)=N[C@H]1c1ccc(F)cc1Cl", "Prefix operator": "=", "Measured value": 7200}

----------
- Tested on: Hepatitis B virus
- Assay details: Antiviral activity against HBV stably transfected in human HepG2.2.15 cells assessed as reduction of HBV DNA replication incubated for 5 days by q-PCR analysis
- Assay type: functional, organism-based
- Experimental setup: HepG2 2.2.15, 120 h

{"Compound": "CCOC(=O)C1=C(CN2C[C@H]3CN(C)C(=O)N3C[C@@H]2C(=O)O)NC(c2nccs2)=N[C@H]1c1cccc(F)c1Cl", "Result unit": "nM", "Prefix operator": "=", "EC50": 2}
{"Compound": "CCOC(=O)C1=C(CN2C[C@H]3CN(C4CC4)C(=O)N3C[C@H]2C(=O)O)NC(c2nccs2)=N[C@H]1c1ccc(F)cc1Cl", "Result unit": "nM", "Prefix operator": "=", "EC50": 145}
{"Compound": "COC(=O)C1=C(CN2CCN3C(=O)NC[C@H]3C2)NC(c2nccs2)=N[C@H]1c1ccc(F)cc1Cl", "Result unit": "nM", "Prefix operator": "=", "EC50": 150}
{"Compound": "CCOC(=O)C1=C(CN2CCN3C(=O)N(CC(C)(C)C(=O)O)C[C@@H]3C2)NC(c2nccs2)=N[C@H]1c1ccc(F)c(F)c1C", "Result unit": "nM", "Prefix operator": "=", "EC50": 3}
{"Compound": "COC(=O)C1=C(CN2CCN(C(C)=O)CC2)NC(c2nccs2)=N[C@H]1c1ccc(F)cc1Cl", "Result unit": "nM", "Prefix operator": "=", "EC50": 50}
{"Compound": "CCOC(=O)C1=C(CN2C[C@H]3CN(C)C(=O)N3C[C@H]2C(=O)O)NC(c2nccs2)=N[C@H]1c1cccc(F)c1Cl", "Result unit": "nM", "Prefix operator": "=", "EC50": 150}
{"Compound": "COC(=O)C1=C(CN2CCN3C(=O)CC[C@H]3C2)NC(c2nccs2)=N[C@H]1c1ccc(F)cc1Cl", "Result unit": "nM", "Prefix operator": "=", "EC50": 160}
{"Compound": "CCOC(=O)C1=C(CN2CCN3C(=O)N(c4ccc(C(=O)O)cc4)C[C@@H]3C2)NC(c2nccs2)=N[C@H]1c1ccc(F)cc1Cl (single isomer, unassigned)", "Result unit": "nM", "Prefix operator": "=", "EC50": 2}
{"Compound": "COC(=O)C1=C(CN2CCc3c([nH][nH]c3=O)C2)NC(c2nccs2)=N[C@H]1c1ccc(F)cc1Cl", "Result unit": "nM", "Prefix operator": "=", "EC50": 750}
{"Compound": "COC(=O)C1=C(CN2CCN3C(=O)OC[C@H]3C2)NC(c2nccs2)=N[C@H]1c1ccc(F)cc1Cl", "Result unit": "nM", "Prefix operator": "=", "EC50": 23}
{"Compound": "COC(=O)C1=C(CN2CCN3C(=O)N(C4CCC(C(=O)O)CC4)C[C@@H]3C2)NC(c2nccs2)=N[C@H]1c1ccc(F)cc1Cl (some centres undefined)", "Result unit": "nM", "Prefix operator": "=", "EC50": 9}
{"Compound": "CCOC(=O)C1=C(CN2CCN3C(=O)N(CC(C)(C)C(=O)O)C[C@@H]3C2)N=C(c2nccs2)N[C@H]1c1cccc(F)c1C [LINVENCORVIR]", "Result unit": "nM", "Prefix operator": "=", "EC50": 6}
{"Compound": "COC(=O)C1=C(CN2CCN3CCCC3C2)NC(c2nccs2)=N[C@H]1c1ccc(F)cc1Cl (some centres undefined)", "Result unit": "nM", "Prefix operator": ">", "EC50": 1000}
{"Compound": "CCOC(=O)C1=C(CN2CCN3C(=O)N(C(C)(C)C(=O)O)C[C@@H]3C2)NC(c2nccs2)=N[C@H]1c1ccc(F)cc1Cl", "Result unit": "nM", "Prefix operator": "=", "EC50": 200}

Numbers sourced from ChEMBL document CHEMBL5316357.
